measuredOn: Estrogen receptor (Homo sapiens) (UniProt P03372)
Sequence (P03372 whole entry, looked up): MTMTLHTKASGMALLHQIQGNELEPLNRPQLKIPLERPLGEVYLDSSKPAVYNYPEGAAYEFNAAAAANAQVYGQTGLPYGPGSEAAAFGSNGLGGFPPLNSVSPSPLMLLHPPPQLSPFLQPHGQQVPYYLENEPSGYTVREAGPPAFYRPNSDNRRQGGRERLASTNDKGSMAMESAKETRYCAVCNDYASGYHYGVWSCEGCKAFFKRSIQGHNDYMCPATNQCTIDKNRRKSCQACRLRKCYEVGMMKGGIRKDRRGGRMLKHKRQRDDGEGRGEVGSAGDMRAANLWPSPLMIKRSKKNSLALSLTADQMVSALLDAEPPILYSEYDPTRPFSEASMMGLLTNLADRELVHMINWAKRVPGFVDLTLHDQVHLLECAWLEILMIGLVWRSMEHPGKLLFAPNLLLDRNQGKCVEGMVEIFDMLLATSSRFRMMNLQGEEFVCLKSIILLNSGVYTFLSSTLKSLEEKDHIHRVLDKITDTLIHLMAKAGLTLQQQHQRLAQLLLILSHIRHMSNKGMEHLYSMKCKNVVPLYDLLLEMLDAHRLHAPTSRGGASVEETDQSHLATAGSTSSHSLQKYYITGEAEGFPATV
assayMethodText: OT_ER_ERaERa_1440: Odyssey Thera (OT) 24-hour HEK293T Protein-Complementation Assay for Estrogen Receptor-alpha/-alpha Homodimer (AID 2283349);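 further: hits raise fluorescence above DMSO for agonists and antagonists alike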
Calls of active or inactive are those of the source. How the source made its calls: active means hit-call score of the fitted dose curve at least 0.9, where 1 is the maximum; inconclusive means response in the unintended direction; inactive means score below 0.9.
Possible outcomes: active, inactive

compound	category
c1ccc2c(c1)ccc1ccccc12	inactive
COc1ccc([N+](=O)[O-])cc1N	inactive
CC(C)(C)c1cc(C(C)(C)C)c(O)c(C(C)(C)C)c1	inactive
CC(C)(C)c1ccc(O)c(C(C)(C)C)c1	inactive
CC(=O)NC1(c2cccc(F)c2)CCN(CC[C@@]2(c3ccc(Cl)c(Cl)c3)CN(c3ccccc3)C(=O)CO2)CC1	inactive
CC(O)C(=O)O (configuration not stated)	inactive
CCc1nn(C2CCCCC2)c2cc(C3(C#N)CCC(C(=O)O)CC3)ccc12 (configuration not stated)	inactive
CCCCCCCCCCCCCCCS(=O)(=O)Oc1ccccc1	inactive
CCCCC(CC)COC(=O)CCCCC(=O)OCc1ccccc1 (configuration not stated)	inactive
CN1CCN(c2ccccc2/C=C2\SCCN(c3ccc(Cl)c(Cl)c3)C2=O)CC1	inactive
C#C[C@]1(O)CC[C@H]2[C@@H]3CCC4=CC(=O)CC[C@@H]4[C@H]3CC[C@@]21C	inactive
OC1CCCCC1	inactive
CC(C)CCCCCCOC(=O)CCCCC(=O)OCCCCCCC(C)C	inactive
O=C1OC2(c3ccccc31)c1cc(Br)c(O)c(Br)c1Oc1c2cc(Br)c(O)c1Br	active
COCC(C)O (configuration not stated)	inactive
CCC(C)(C)C1CCC(O)CC1 (configuration not stated)	inactive
CCCCC(CC)COC(=O)CCCCC(=O)OCC(CC)CCCC (configuration not stated)	inactive
CCCCCCC(=O)O	inactive
OC1CCC(C2CCCCC2)CC1 (configuration not stated)	inactive
c1ccc2c(c1)Cc1ccccc1-2	inactive
CCCCCCCCOC(=O)CCCCCCCCC(=O)OCCCCCCCC	inactive
CC(C)(C)c1cccc(C(C)(C)C)c1O	inactive
